# credit: the SangsterLogP compilation

logP values by entry
Lab note: record just the number, no unit beside it.

- Line notation: "CCc1c2ccccc2cc2ccccc12"
  Reported endpoint: "logP"
  Endpoint result: 5.52
- Line notation: "O=[N+]([O-])c1cccc2ccccc12"
  Reported endpoint: "logP"
  Endpoint result: 3.06

q: Given CCCCCc1ccc(C(=O)O)cc1 , state its recorded logP.
a: 4.5

q: Need logP, item Cc1cccc(C)c1C(=O)c1ccccc1
a: 3.65
